This section presents molecules with their documented Specific activity, Eriodictyol chalcone values.
# EXPERIMENTAL_PROTOCOL: Specific activity of purified CHI, absorbance decrease at 384 nm, eriodictyol chalcone; also: unit not given here
# Type: biochemical
# SETUP_CONDITIONS: purified CHI in 50 mM PBS, 100 μM substrate, 25° C.

Record excerpt, results attached:
MOLECULE	PROPERTY_MEASURED	REPORTED_RESULT
CHI15: Chalcone isomerase from Clostridioides difficile, access no. WP_095917646.1 (protein, Clostridioides difficile) ADFEFKIMRSLIYVGLAKEEYRPKLMDWLYRHHIPDSISTFGPYCTKYAFYQAYPTPNEGERFGARKMQLTEHYWLVDEHMPEMANRIMTEYMPMDVLRWQGCIPDVENKRVHENVESGDAGRAVGGDNGCPPFIFAFVPINWEEDFRGKGRTVQDGPNYRWQFMIKYPDGISKEEGEKWFYDEVVPYFTNCCYVNRFVSSKIMINYGATAFDRVSELWFEGEEEWYKAVVEETKSFIKKPEWAQEEEFPYLKPQFNIASVFLGDIATMDAYSQYRGYIPMR	Specific activity, Eriodictyol chalcone	11.7
CHI13: Chalcone isomerase from Lactobacillus sp. 54-2, access no. WP_125715151.1 (protein, Lactobacillus sp. 54-2) SFEFRPMRSVIYVDVIKEKYRPKLLHWLYGHHIQDSISKFGPYVTKYAFYNAFPVPPEGERFGTRRMQMTEHYWLINEMTPEMKNNAITEYMPKDVLRWQGNIPDTDAAAAGNVDGDTGRSAGGANGCQPFVFAHVPINWEEDYKGDGRMVADGPNYRWQFVIKYPENLTEAAGEAWFHDEVVPYFKGRPEVHRFMSSRIMQDVVGCEFERLVEMWFDSEDEWYTAAVAGTTALKKPSWAQQNQFPFLTPQFNIVGMFLPDIPTSDNLAQYRGYITMR	Specific activity, Eriodictyol chalcone	66.2
CHI8: Chalcone isomerase from Roseburia sp., access no. SCJ10619.1 (protein, listed as Roseburia sp.) RSLIYVDVAKEQYRVKLNHWLYAVHVPESISKFRPYVSQYAFYNALPVPPLGEQFGTVRMQLTEHYWQVNPMDVSMAVNVFTETFPTEVLIWQGNMPENAIALNYEGDEARSAKVENCNPFVFAFLPISWEEDLKGAGRTMADGPNYRWNFALHYPDGVSVETGDQWFYEKFVPAFLEIPEATRMVTSKIIKEINDCPMDRVVEIWFEGPDQWSAAMEKAKSIEPPEWAQEETFPYLKPYQNIMGVFVADNISSDNLNNHRGYITMR	Specific activity, Eriodictyol chalcone	33.9

Can you look up the measured Specific activity, Eriodictyol chalcone of CHIera Mut9: Chalcone isomerase variant 9 from Eubacterium ramulus, genetically engineered (protein, listed as Eubacterium ramulus) MADFKFEPMRSLIYVDCVSEDYRPKLQRWIYKVHIPDSISQFEPYVTKYAFYPSFPIPPQGDRFGYARMQLTEHHWLVSMLDPRLEIKAIAETFPMDVLVWQGQIPAAAHTDAQIDSDGDAGNAARKSNNAEGNPFIFAFLPMWWEKDLKGKGRTIEDGANYRFNMTIGFPEGVDKAEGEKWLFEKVVPILQAAPECTRVLASAVKKDINGCVMDWVLEIWFENQSGWYKVMVDDMKALEKPSWAQQDAFPFLKPYHNVCSAAVADYTPSNNLANYRGYITMR for me?
43.7
